Each recorded value in this set is attributed to patent US11370763B2.

Test system: IL-1β production in PMA-differentiated THP-1 cells
Assay: IL-1β production in PMA-differentiated THP-1 cells stimulated with gramicidin (hTHP-1 assay containing 2% fetal bovine serum; Procedures 1-3)
Type: cell-based, human
Details: Homo sapiens, THP-1, hTHP-1 assay containing 2% fetal bovine serum; class symbols; read-out: hTHP-1 IC50 (Average IC50 of compounds in hTHP-1 assay)
quantity.kind: IC50

Problem: For the compound CC(C)c1ccc(F)c(C(C)C)c1CC(=O)N=S(N)(=O)c1nc(C(C)(C)O)cs1 (centres unmarked) [Example 119] , give its reported IC50.
Solution: 200 to 1000 nM

Problem: For the compound CC(C)c1ncc(F)c(C(C)C)c1CC(=O)N=S(N)(=O)c1nc(C(C)(C)O)cs1 (single isomer, unassigned) [Example 206] , give its reported IC50.
Solution: 200 to 1000 nM

***
Problem: For the compound CC(C)c1ncc(F)c(C(C)C)c1CC(=O)N=S(N)(=O)c1cnc(C(C)(C)O)s1 (centres unmarked) [Example 146] , give its reported IC50.
Solution: 5000 to 30000 nM

Problem: For the compound CC(C)c1cc(C#N)cc(C2CC2)c1CC(=O)N=S(N)(=O)c1ccc(CN(C)C)cc1F (single isomer, unassigned) [Example 62] , give its reported IC50.
Solution: 1000 to 5000 nM

Problem: For the compound CC(C)c1cc(COC2CCCC2)cc(C(C)C)c1CC(=O)N=S(=O)(NC(=O)OC(C)(C)C)c1cnc(C(C)(C)O)s1 (centres unmarked) [Example 140] , give its reported IC50.
Solution: 200 to 1000 nM

Problem: For the compound CC(C)c1cc(C(F)F)cc(C(C)C)c1CC(=O)N=S(N)(=O)c1ccc(CN(C)C)cc1F (centres unmarked) [Example 35] , give its reported IC50.
Solution: 200 to 1000 nM

Problem: For the compound CC(C)c1nc(C(F)(F)F)nc(C(C)C)c1CC(=O)N=S(N)(=O)c1cnc(C(C)(C)O)s1 (centres unmarked) [Example 153] , give its reported IC50.
Solution: 1000 to 5000 nM

Problem: For the compound CC(C)c1nc(-c2cccc(C(F)(F)F)c2)c(F)c(C(C)C)c1CC(=O)N=S(=O)(NC(=O)OC(C)(C)C)c1cnc(C(C)(C)O)s1 (centres unmarked) [Example 99] , give its reported IC50.
Solution: 1000 to 5000 nM

Problem: For the compound CC(C)c1cc(-c2ccc(Cl)c(Cl)c2)cc(C(C)C)c1CC(=O)N=S(N)(=O)c1ncc(C(C)(C)O)s1 (centres unmarked) [Example 122] , give its reported IC50.
Solution: 200 to 1000 nM

Problem: For the compound CC(C)c1cc(F)cc(C(C)C)c1CC(=O)N=S(=O)(NC(=O)Cc1c(C(C)C)cc(F)cc1C(C)C)c1ncc(C(C)(C)O)s1 (centres unmarked) [Example 10] , give its reported IC50.
Solution: 5000 to 30000 nM

Problem: For the compound CC(C)c1cc(OC(F)F)cc(C(C)C)c1CC(=O)N=S(N)(=O)c1sc(C(C)(C)O)cc1F (centres unmarked) [Example 21] , give its reported IC50.
Solution: 40 to 200 nM

Problem: For the compound CC(C)c1c(F)c(C#N)cc(C2CC2)c1CC(=O)N=S(N)(=O)c1ccc(CN(C)C)cc1F (centres unmarked) [Example 128] , give its reported IC50.
Solution: 200 to 1000 nM

Problem: For the compound CC(C)(O)c1cnc(S(=N)(=O)NC(=O)Cc2c3c(cc4c2CCC4)CCC3)s1 (single isomer, unassigned) [Example 6] , give its reported IC50.
Solution: 1000 to 5000 nM

Problem: For the compound CC(C)c1ncc(F)c(C(C)C)c1CC(=O)N=S(N)(=O)c1ncc(C(C)(C)O)s1 (single isomer, unassigned) [Example 204] , give its reported IC50.
Solution: 1000 to 5000 nM
